# method description: CEETOX_H295R_OHPROG: CeeTox H295R High-throughput Steroidogenesis Assay for OH-Progesterone (OHPROG) (AID 2283435)
# conditions used: actives raise or lower the signal
Activity calls are given as the source filed them. The calls were made as follows: active = hit-call score of the fitted dose curve at least 0.9, where 1 is the maximum; inactive = score below 0.9.
Hi there, use one of these labels in your reply, thanks! active, inactive

Worked examples, 3 compounds total:
INSERT INTO results (line_notation, group_label) VALUES
  ('c1ccc(OP(Oc2ccccc2)Oc2ccccc2)cc1', 'inactive'),
  ('CO/N=C(/C(=O)OC)c1ccccc1COc1ccccc1C', 'active'),
  ('Cc1cccc(N)c1', 'inactive');

Hey, what did the test say about `Cc1ccc(O)cc1C` ?
inactive

Test call for this compound, please: `CCCCOCCOP(=O)(OCCOCCCC)OCCOCCCC`
inactive

* * *

# Read-out: CYP2C8 (gene 1558)
# method description: LTEA_HepaRG_CYP2C8: Life Technologies and Expression Analysis (LTEA) Assay for CYP2C8 using HepaRG (AID 2283483)
# conditions used: mRNA level, 48 h; actives raise or lower the signal
Active and inactive are the calls of the source. How the source made its calls: active means hit-call score of the fitted dose curve at least 0.9, where 1 is the maximum; inactive means score below 0.9.
parameter measured: AC50

// worked examples, AC50 included
INSERT INTO results (compound, observed_result) VALUES
  ('c1cc2c3c(cccc3c1)CC2', 'inactive'),
  ('Nc1ccc(Cl)cc1', 'inactive'),
  ('ClC1=C(Cl)C2(Cl)C3C(Cl)C(Cl)CC3C1(Cl)C2(Cl)Cl (configuration not stated)', '2.17 µM (active)'),
  ('CCC(C)(C)c1ccc(O)cc1', 'inactive'),
  ('CCCCN(CCCC)SN(C)C(=O)Oc1cccc2c1OC(C)(C)C2', 'inactive');

Any idea what its AC50 is? The compound is `ClC(Cl)(Cl)c1ccccc1`
inactive

Please give the measured AC50 for this compound: O=C(O)C1C(C(=O)O)C2(Cl)C(Cl)=C(Cl)C1(Cl)C2(Cl)Cl (configuration not stated)
inactive

Which AC50 is reported for this compound? O=P1(N(CCCl)CCCl)NCCCO1 (configuration not stated)
inactive

Which measured AC50 value corresponds to `CCCCc1ccccc1` ?
inactive

* * *

# Read-out: E-selectin (Homo sapiens)
# method description: BSK_SAg_Eselectin: BioMAP Diversity Plus: SAg Assay for Eselectin Biomarker Activity (AID 2283091)
# conditions used: primary human HUVEC with PBMC; actives raise or lower the signal
Calls of active or inactive are those of the source. How the source made its calls: active means hit-call score of the fitted dose curve at least 0.9, where 1 is the maximum; inactive means score below 0.9.
Answer with one of the outcomes active, inactive

INSERT INTO measurements (compound, group_label) VALUES
  ('CC(Cc1ccc(OCC(=O)O)cc1)NCC(O)c1csc(C(F)(F)F)n1 (centres undefined)', 'inactive');

What did this assay record as the result for `N#Cc1c(-c2ccc(Cl)cc2)[nH]c(C(F)(F)F)c1Br` ?
active

Query: recorded result category for FC(F)(F)C(F)(C(F)(F)F)C(F)(F)C(F)(F)CC1CO1 (centres undefined) in this test
inactive

* * *

# assay target: Hypoxia-inducible factor 1-alpha (Homo sapiens)
# method description: ATG_HIF1a_CIS: Attagene CIS-FACTORIAL HepG2 Assay for human Hypoxia Inducible Factor 1 (HIF1A) (AID 2282951)
# conditions used: HepG2 Attagene cis-factorial HIF1a reporter transcription; actives raise or lower the signal
The source made the active and inactive calls. How the source made its calls: active means hit-call score of the fitted dose curve at least 0.9, where 1 is the maximum; inactive means score below 0.9.
Write down one outcome, taken from 1.0 for active, 0.0 for inactive

INSERT INTO measurements (compound, group_label) VALUES
  ('c1ccc(OP(Oc2ccccc2)Oc2ccccc2)cc1', 0.0),
  ('O=C(O)CF', 0.0),
  ('COC(=O)C(F)(F)C(F)(F)OC(F)(C(F)(F)F)C(F)(F)OC(F)=C(F)F (stereo not drawn)', 0.0),
  ('NNC(N)=S', 0.0);

Then this compound:
Fill in: this test's call for CCCCC(CC)COP(=O)(Oc1ccccc1)Oc1ccccc1 (stereo not drawn) is ___
1.0
